# HCT listing for each entry below
# runConditions: mouse, in vivo, sc, 50 mg/kg
e = 2'-O-(2-methoxyethyl) (MOE); d = 2'-deoxy (DNA)
Report as a plain number; the unit % is understood.

These solved cases illustrate the format of a correct answer.
• ISIS 416858: MOE gapmer, nucleobases 1275 to 1318 of SEQ ID NO: 1 (Table 8) (antisense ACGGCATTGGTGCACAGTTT; MOE gapmer, wing and gap sizes not given here) = 50
• ISIS 416865: MOE gapmer, nucleobases 1275 to 1318 of SEQ ID NO: 1 (Table 8) (antisense TGGCAGCGGACGGCATTGGT; MOE gapmer, wing and gap sizes not given here) = 50
• ISIS 416860: MOE gapmer, nucleobases 1275 to 1318 of SEQ ID NO: 1 (Table 8) (antisense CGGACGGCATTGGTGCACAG; MOE gapmer, wing and gap sizes not given here) = 51
• ISIS 416857: MOE gapmer, nucleobases 1275 to 1318 of SEQ ID NO: 1 (Table 8) (antisense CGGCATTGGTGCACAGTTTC; MOE gapmer, wing and gap sizes not given here) = 53
• ISIS 412224: 5-10-5 MOE gapmer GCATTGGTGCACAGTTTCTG (sugars from the 5' end e5 d10 e5, backbone and methylation of C not given here) = 50

Kindly note the recorded HCT for ISIS 416867: MOE gapmer, nucleobases 1275 to 1318 of SEQ ID NO: 1 (Table 8) (antisense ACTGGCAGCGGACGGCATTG; MOE gapmer, wing and gap sizes not given here) , which is 47
